Where these numbers come from: the RepoRT retention time repository (doi:10.1016/j.chroma.2019.01.023)

- measurement.protocol: HILIC, Waters ACQUITY UPLC BEH Amide, 150 × 2.1 mm, 1.7 µm, 40 °C, 0.5 mL/min, estimated dead time 0.66 min; A: 5% water + 95% acetonitrile; B: 70% water + 30% acetonitrile + 10 mM ammonium formate, pH 6.5; gradient (min/%B) 0/0 2/0 20/70 23/70 24/0 31/0
- condition.context: stereoisomer not certain
measure.name: log10(LC retention time) (log10 of the value in min)

>>> result("CSCCC(NC(C)=O)C(=O)O (stereo not given)")
0.52
>>> result("C[N+](C)(C)CCCCC(N)C(=O)O (stereo not given)")
-0.08
>>> result("C[Se]CCC(N)C(=O)O (stereo not given)")
0.93
>>> result("O=c1ccn(C2CC(O)C(CO)O2)c(=O)[nH]1 (stereo not given)")
0.37
>>> result("CCCCCCCCCCCCCCCC(=O)OC(CC(=O)[O-])C[N+](C)(C)C (stereo not given)")
0.77
